Recorded values, source the supplement of paper PMC9233669.

# Test system: biotinyl-Val-oxazolone
# PROCEDURE TEXT: self-aminoacylation, catalytic enhancement (BVO) (fold over background); higher = more active; k-Seq, kA / k0A0; sequences stand for … in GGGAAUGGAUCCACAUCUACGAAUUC…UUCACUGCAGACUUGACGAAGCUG
Fewer inactive variants are shown than the library holds.
PROPERTY NAME: self-aminoacylation
Response field accepts a number only; no unit should be typed.

Response field self-aminoacylation (biotinyl-Val-oxazolone) for item CUACUUCAAGCAAUCAGUCUG [Fam1A.1 aminoacylation ribozyme variant] : 0.786

Response field self-aminoacylation (biotinyl-Val-oxazolone) for item CCACACUGCAUGCAAUCGGUC [Fam1B.1 aminoacylation ribozyme variant] : 0.857

Response field self-aminoacylation (biotinyl-Val-oxazolone) for item CCACACUUUAAGCAAUCAGUC [Fam1B.1 aminoacylation ribozyme variant] : 0.874

Response field self-aminoacylation (biotinyl-Val-oxazolone) for item CUACUUCACACAAUCGGUCUG [Fam1A.1 aminoacylation ribozyme variant] : 0.811

Response field self-aminoacylation (biotinyl-Val-oxazolone) for item ACACACUUCAAGAAAUCGGUC [Fam1B.1 aminoacylation ribozyme variant] : 1.27

Response field self-aminoacylation (biotinyl-Val-oxazolone) for item CUUAACCUGGUCAUCGAGUGA [Fam2.1 aminoacylation ribozyme variant] : 3.11

Response field self-aminoacylation (biotinyl-Val-oxazolone) for item UUUACCCUGGUCAUAGAGUGA [Fam2.1 aminoacylation ribozyme variant] : 3.07

Response field self-aminoacylation (biotinyl-Val-oxazolone) for item CUGCUUCAAACAAUCUGUCUG [Fam1A.1 aminoacylation ribozyme variant] : 0.701

---

# Test system: biotinyl-Val-oxazolone
# PROCEDURE TEXT: self-aminoacylation, catalytic enhancement (BVO) (fold over background); higher = more active; k-Seq, kA / k0A0; sequences stand for … in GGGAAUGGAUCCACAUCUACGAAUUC…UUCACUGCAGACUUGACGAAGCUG
Fewer inactive variants are shown than the library holds.
Reported self-aminoacylation values for the following sequences.
Response field accepts a number only; no unit should be typed.

CCACAAUUCAAGCAAGCGGUC [Fam1B.1 aminoacylation ribozyme variant] : 1.42

Reported self-aminoacylation of AAGUUUGCUAAUAGUUGGAAG [Fam3.1 aminoacylation ribozyme variant] : 1.25

Reported self-aminoacylation of CCACGAUUCAAGCAAUCGGUC [Fam1B.1 aminoacylation ribozyme variant] : 1.47

Reported self-aminoacylation of AAGUUGGCUAAUACUCGCAAG [Fam3.1 aminoacylation ribozyme variant] : 1.39

---

# Test system: biotinyl-Ile-oxazolone
# PROCEDURE TEXT: self-aminoacylation, catalytic enhancement (BIO) (fold over background); higher = more active; k-Seq, kA / k0A0; sequences stand for … in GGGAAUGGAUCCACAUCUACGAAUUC…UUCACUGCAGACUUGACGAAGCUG
Fewer inactive variants are shown than the library holds.
# binarize self-aminoacylation: threshold 2 inclusive, high side met, low side not met

### Prompt Is it the case that CUACUUCAAACACUCGGGCUG [Fam1A.1 aminoacylation ribozyme variant] has self-aminoacylation reaching or exceeding 2?
### Response met

### Prompt Is it the case that AUUCUCCAAGGUCAUCGGGUG [Fam2.2 aminoacylation ribozyme variant] has self-aminoacylation reaching or exceeding 2?
### Response met

### Prompt Is it the case that CUAAUUAAAACAAUCGGUCUG [Fam1A.1 aminoacylation ribozyme variant] has self-aminoacylation reaching or exceeding 2?
### Response not met

### Prompt Is it the case that CUACUUCAAACAAUCGGCCUG [Fam1A.1 aminoacylation ribozyme variant] has self-aminoacylation reaching or exceeding 2?
### Response not met

### Prompt Is it the case that AAGCUUGCUGAUAGUCGCAAG [Fam3.1 aminoacylation ribozyme variant] has self-aminoacylation reaching or exceeding 2?
### Response met

### Prompt Is it the case that CUACUUCAAAUAAUCGGUGUG [Fam1A.1 aminoacylation ribozyme variant] has self-aminoacylation reaching or exceeding 2?
### Response not met

### Prompt Is it the case that AUUCACCUAUGUCAUCGGGUG [Fam2.2 aminoacylation ribozyme variant] has self-aminoacylation reaching or exceeding 2?
### Response met

---

Reported self-aminoacylation values for the following sequences.
# System: biotinyl-Phe-oxazolone
# PROCEDURE TEXT: self-aminoacylation, catalytic enhancement (BFO) (fold over background); higher = more active; k-Seq, kA / k0A0; sequences stand for … in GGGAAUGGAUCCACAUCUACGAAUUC…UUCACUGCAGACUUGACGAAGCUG
This sample holds only a part of the variants without activity.
Response field accepts a number only; no unit should be typed.

Consider the reported self-aminoacylation for these sequences:
GUUACUCUGGUCAUCGAGUGA [Fam2.1 aminoacylation ribozyme variant] : 32.9
GUACUUCAAAAAAUCGGUCUG [Fam1A.1 aminoacylation ribozyme variant] : 7.83
AAGUGUGCUACUAGUCGCAAG [Fam3.1 aminoacylation ribozyme variant] : 1.71

Reported self-aminoacylation of AUGUUUGCUCAUAGUCGCAAG [Fam3.1 aminoacylation ribozyme variant] : 2.41

Reported self-aminoacylation of AUCACCCUGGUCAUCGAGUGC [Fam2.1 aminoacylation ribozyme variant] : 4.47

---

# System: biotinyl-Phe-oxazolone
# PROCEDURE TEXT: self-aminoacylation, catalytic enhancement (BFO) (fold over background); higher = more active; k-Seq, kA / k0A0; sequences stand for … in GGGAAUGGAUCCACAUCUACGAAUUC…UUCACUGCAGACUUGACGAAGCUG
Variants at the floor of the assay were thinned out.
Reported self-aminoacylation values for the following sequences.
Response field accepts a number only; no unit should be typed.

Consider the reported self-aminoacylation for these sequences:
AUUUCCCUUGUCAUCGAGUGA [Fam2.1 aminoacylation ribozyme variant] : 46
AUCCACCUGGGUCAUCGGGUG [Fam2.2 aminoacylation ribozyme variant] : 41.8
CCACACUUCAAUCAAUCGGUA [Fam1B.1 aminoacylation ribozyme variant] : 0.825

Reported self-aminoacylation of AAUACCCUGGUCAUCGAGCGA [Fam2.1 aminoacylation ribozyme variant] : 1.56

Reported self-aminoacylation of AAGGUAGCUAAUAGUCGCAAG [Fam3.1 aminoacylation ribozyme variant] : 3.35

---

# Test system: biotinyl-Val-oxazolone
# PROCEDURE TEXT: self-aminoacylation, catalytic enhancement (BVO) (fold over background); higher = more active; k-Seq, kA / k0A0; sequences stand for … in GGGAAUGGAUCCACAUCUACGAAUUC…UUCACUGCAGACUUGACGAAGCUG
Variants at the floor of the assay were thinned out.
PROPERTY NAME: self-aminoacylation
Response field accepts a number only; no unit should be typed.

CCCCACCUCAAGCAAUCGGUC [Fam1B.1 aminoacylation ribozyme variant] : 2.2
AAGGCUGCUAAUAGUCGCAAG [Fam3.1 aminoacylation ribozyme variant] : 1.38
AUCCUUCAAACAAUCGGUCUG [Fam1A.1 aminoacylation ribozyme variant] : 0.688

Response field self-aminoacylation (biotinyl-Val-oxazolone) for item CUACUUCACACAAUGGGUCUG [Fam1A.1 aminoacylation ribozyme variant] : 0.754

---

# System: biotinyl-Val-oxazolone
# PROCEDURE TEXT: self-aminoacylation, catalytic enhancement (BVO) (fold over background); higher = more active; k-Seq, kA / k0A0; sequences stand for … in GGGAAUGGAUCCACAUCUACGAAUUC…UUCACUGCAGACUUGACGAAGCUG
Fewer inactive variants are shown than the library holds.
Reported self-aminoacylation values for the following sequences.

Response field self-aminoacylation (biotinyl-Val-oxazolone) for item GUGCACCUAGGUCAUCGGGUG [Fam2.2 aminoacylation ribozyme variant] : 4.64

Response field self-aminoacylation (biotinyl-Val-oxazolone) for item AUUGCCCUGGUCAUCGAGUUA [Fam2.1 aminoacylation ribozyme variant] : 2.64

Response field self-aminoacylation (biotinyl-Val-oxazolone) for item AUUCAUCUACGUCAUCGGGUG [Fam2.2 aminoacylation ribozyme variant] : 3.82

Response field self-aminoacylation (biotinyl-Val-oxazolone) for item AUUACCCUGGCCAUGGAGUGA [Fam2.1 aminoacylation ribozyme variant] : 2.79

Response field self-aminoacylation (biotinyl-Val-oxazolone) for item AAGUUUGCUAAGAGUUGCAAG [Fam3.1 aminoacylation ribozyme variant] : 0.757

---

# System: biotinyl-Val-oxazolone
# PROCEDURE TEXT: self-aminoacylation, catalytic enhancement (BVO) (fold over background); higher = more active; k-Seq, kA / k0A0; sequences stand for … in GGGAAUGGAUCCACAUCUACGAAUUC…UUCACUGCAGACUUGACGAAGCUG
Variants at the floor of the assay were thinned out.
# binarize self-aminoacylation: threshold 1 inclusive, high side Fulfilled, low side Not fulfilled

Please review the following examples before continuing.
AUUCGCCUAGGUCAUCGGGAG [Fam2.2 aminoacylation ribozyme variant] : Fulfilled
CCACACUUCAAGCACUGGGUC [Fam1B.1 aminoacylation ribozyme variant] : Fulfilled

### Prompt Is it the case that AAGUUUGCCAAUAGUCACAAG [Fam3.1 aminoacylation ribozyme variant] has self-aminoacylation reaching or exceeding 1?
### Response Fulfilled

### Prompt Is it the case that CUACUUCUAAUAAUCGGUCUG [Fam1A.1 aminoacylation ribozyme variant] has self-aminoacylation reaching or exceeding 1?
### Response Not fulfilled

### Prompt Is it the case that CCUUACUUCAAGCAAUCGGUC [Fam1B.1 aminoacylation ribozyme variant] has self-aminoacylation reaching or exceeding 1?
### Response Fulfilled

### Prompt Is it the case that AUUCACCUGGGUCAUCGGGAG [Fam2.2 aminoacylation ribozyme variant] has self-aminoacylation reaching or exceeding 1?
### Response Fulfilled

### Prompt Is it the case that CCCCACUUCAAGCAAUCGGUU [Fam1B.1 aminoacylation ribozyme variant] has self-aminoacylation reaching or exceeding 1?
### Response Fulfilled

### Prompt Is it the case that AAGUUUGCUAAUAGUCUCGAG [Fam3.1 aminoacylation ribozyme variant] has self-aminoacylation reaching or exceeding 1?
### Response Not fulfilled
